Where these numbers come from: ChEMBL document CHEMBL3817752

System: Escherichia coli
Experiment: Antimicrobial activity against Escherichia coli ATCC 25922 at 20 ug per disk after 18 to 24 hrs by agar diffusion assay
Assay type: functional
Settings: read-out: DIZ
Documented zone of inhibition at 20 µg/disc across a set of molecules

[
  {
    "molecule": "N/C(=N/NC(CC(=O)c1ccc(-n2ccnc2)cc1)c1cccc(Br)c1)c1ccccn1 (centres undefined)",
    "zone of inhibition at 20 µg/disc (mm)": 8
  },
  {
    "molecule": "N/C(=N/NC(CC(=O)c1ccc(-n2ccnc2)cc1)c1cccc(Cl)c1)c1ccccn1 (centres undefined)",
    "zone of inhibition at 20 µg/disc (mm)": 7
  },
  {
    "molecule": "N/C(=N/NC(CC(=O)c1ccc(-n2ccnc2)cc1)c1ccc(F)cc1)c1ccccn1 (centres undefined)",
    "zone of inhibition at 20 µg/disc (mm)": 6
  },
  {
    "molecule": "N/C(=N/NC(CC(=O)c1ccc(-n2ccnc2)cc1)c1ccc([N+](=O)[O-])cc1)c1ccccn1 (centres undefined)",
    "zone of inhibition at 20 µg/disc (mm)": 5
  },
  {
    "molecule": "N/C(=N/NC(CC(=O)c1ccc(-n2ccnc2)cc1)c1cccc(F)c1)c1ccccn1 (centres undefined)",
    "zone of inhibition at 20 µg/disc (mm)": 7
  },
  {
    "molecule": "N/C(=N/NC(CC(=O)c1ccc(-n2ccnc2)cc1)c1cccc([N+](=O)[O-])c1)c1ccccn1 (centres undefined)",
    "zone of inhibition at 20 µg/disc (mm)": 5
  },
  {
    "molecule": "N/C(=N/NC(CC(=O)c1ccc(-n2ccnc2)cc1)c1ccccc1[N+](=O)[O-])c1ccccn1 (centres undefined)",
    "zone of inhibition at 20 µg/disc (mm)": 6
  },
  {
    "molecule": "N/C(=N/NC(CC(=O)c1ccc(-n2ccnc2)cc1)c1ccccc1)c1ccccn1 (centres undefined)",
    "zone of inhibition at 20 µg/disc (mm)": 7
  },
  {
    "molecule": "N/C(=N/NC(CC(=O)c1ccc(-n2ccnc2)cc1)c1ccc(Cl)cc1Cl)c1ccccn1 (centres undefined)",
    "zone of inhibition at 20 µg/disc (mm)": 6
  }
]
